- tested_on: CYP3A4 (Homo sapiens)
- Construct: pre-incubated with human liver microsomes and NADPH; from tissue; host or cells: human liver microsomes
- Sequence (P08684 whole entry): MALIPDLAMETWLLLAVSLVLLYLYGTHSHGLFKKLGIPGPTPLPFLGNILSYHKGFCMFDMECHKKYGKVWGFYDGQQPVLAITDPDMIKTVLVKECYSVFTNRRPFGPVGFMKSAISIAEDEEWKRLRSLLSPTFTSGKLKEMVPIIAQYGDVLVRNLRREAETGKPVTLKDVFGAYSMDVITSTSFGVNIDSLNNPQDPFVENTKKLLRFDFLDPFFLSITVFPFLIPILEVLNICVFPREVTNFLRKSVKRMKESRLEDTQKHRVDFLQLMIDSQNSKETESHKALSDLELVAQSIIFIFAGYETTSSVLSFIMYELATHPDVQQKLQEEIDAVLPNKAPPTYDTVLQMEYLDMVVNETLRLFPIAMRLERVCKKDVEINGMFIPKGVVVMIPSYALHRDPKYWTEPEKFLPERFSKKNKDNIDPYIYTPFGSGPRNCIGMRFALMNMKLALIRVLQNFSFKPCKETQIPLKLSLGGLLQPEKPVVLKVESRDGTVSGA
- assay_details: Cytochrome P450 inhibition assay (midazolam hydroxylation)
- Type: in vitro ADME
- experimental_conditions: human, human liver microsomes, probe midazolam (hydroxylation to 1′-hydroxymidazolam), 10 μM test compound, midazolam at approximately its Km
Hi there, I'd appreciate the recorded inhibition at 10 µM for every entry that follows.
Hey, just the number and the unit after it is fine.

Worked examples follow.
>  <smiles_input>
Cc1ccc(-n2nccn2)c(C(=O)N2CCC[C@@H](C)[C@H]2CNc2nc3cc(Cl)ccc3o2)c1

>  <inhibition at 10 µM>
78%

$$$$
>  <smiles_input>
Cc1ccc(-c2cnn(C)c2)c(C(=O)N2CCC[C@@H](C)[C@H]2CNc2ccc(C(F)(F)F)cn2)c1

>  <inhibition at 10 µM>
98%

$$$$
>  <smiles_input>
Cc1ccc(-c2cnn(C)c2)c(C(=O)N2CCC[C@@H](C)[C@H]2CNc2nc3ccc(Cl)cc3o2)c1

>  <inhibition at 10 µM>
98%

$$$$
>  <smiles_input>
Cc1ccc(-c2ncccn2)c(C(=O)N2CCC[C@@H](C)[C@H]2CNc2ccc(C(F)(F)F)nn2)c1

>  <inhibition at 10 µM>
47%

$$$$
>  <smiles_input>
Cc1ccc(-n2nccn2)c(C(=O)N2CCC[C@@H](C)[C@H]2CNc2ccc(Cl)cn2)n1

>  <inhibition at 10 µM>
64%

$$$$
>  <smiles_input>
Cc1ccc(-n2cccn2)c(C(=O)N2CCC[C@@H](C)[C@H]2CNc2ccc(C)nn2)c1

>  <inhibition at 10 µM>
43%

$$$$

Next up:
[in] Find the recorded inhibition at 10 µM belonging to Cc1ccc(-c2ccccn2)c(C(=O)N2CCC[C@@H](C)[C@H]2CNc2ccc(Cl)cn2)c1 and report it.
[out] 92%
